Kindly supply the reported RM^0 (retention parameter, intercept at φ = 0% modifier) values for the records listed here.
- protocol_notes: RP-HPTLC retention (RM0, lipophilicity parameter) on RP-18W/UV254 plates
- Assay type: physicochemical
- test_parameters: RP-18W/UV254, tetrahydrofuran - water (φ = 0.5 - 0.75)
Numbers only.

Record excerpt, results attached:
Challenge: Name the recorded RM^0 (retention parameter, intercept at φ = 0% modifier) for CN(c1nc(Cl)nc(N(C)C2CCCCC2)n1)C1CCCCC1 .
Response given: 3.611

Challenge: Dear colleague, I am looking for the recorded RM^0 (retention parameter, intercept at φ = 0% modifier) of the following compound: CC1(Nc2nc(Cl)nc(NC3(C)CCCCCC3)n2)CCCCCC1
Response given: 4.071

Now for another entry.
Challenge: Given the compound Clc1nc(NC2CCCCC2)nc(N(c2ccccc2)C2CCCCC2)n1 , what is its reported RM^0 (retention parameter, intercept at φ = 0% modifier)?
Response given: 3.387
